assay: qHTS Screen of the MIPE 4.0 Collection Against Ewings Sarcoma (RDES) (AID 1259252); conditions: RD-ES Ewing sarcoma viability, CellTiter-Glo, 48 h; series mostly up to 45.8 µM; further: nearly all actives have a fitted effect of over 35% in size
Records with an inconclusive call do not appear. The source made the active and inactive calls. The call rests on the fitted dose curve; in most records, active means well fitted inhibition curve with a large enough effect; inconclusive means small, poorly fitted or top-dose-only effect; inactive means no such curve, though single readings can be large or run the other way.
Valid outcomes are listed here; reply with one: y (active), n (inactive)

// below: answered molecules
CC(C)C(=O)Oc1ccc(CO)cc1[C@H](CCN(C(C)C)C(C)C)c1ccccc1    n
CCC(CC)[C@H](NC(C)=O)[C@@H]1[C@H](O)[C@@H](C(=O)O)C[C@@H]1N=C(N)N    n
C=C1C(=O)[C@@]23C(CC[C@@H]1[C@H]2O)[C@@]12CO[C@]3(O)[C@@H](O)[C@@H]1C(C)(C)CC[C@@H]2O (some centres not stated)    y
O=C(CCN1CCN(C(=O)OCc2cc(Cl)cc(Cl)c2)CC1)c1ccc2[nH]c(=O)oc2c1    n
Oc1ccc(C2=Cc3ccc(O)cc3OC2)cc1    y
Nc1nc(F)nc2c1ncn2[C@@H]1O[C@H](COP(=O)(O)O)[C@@H](O)[C@H]1O    y

Next:
Ask: Recorded test call requested for CC(C(=O)O)c1ccc(-c2ccccc2)c(F)c1 (configuration not stated)
Reply: y
